test system: rabbit aortic rings; test: Assay B: In Vitro Vascular Smooth Muscle Response for AII (antagonist activity in rabbit aortic rings); format: cell-based; settings: Oryctolagus cuniculus, first value of the pair (aorta rings from two rabbits); test antagonist at 10^-5 M; AII contraction; read-out: Assay B pA2 (converted)
EXPERIMENTAL READOUT: log10 Kb (log10 of the value in nM)
Would you kindly interpret these values as log10 of Kb expressed in nM?

{"COMPOUND": "CCCCc1cn(CCC)c(=O)n1Cc1ccc(-c2ccccc2-c2nnn[nH]2)nc1 [Example 12]", "log10 Kb": 1.32}
{"COMPOUND": "CCCCc1cn(CCc2ccccc2)c(=O)n1Cc1ccc(-c2ccccc2-c2nnn[nH]2)nc1 [Example 26]", "log10 Kb": 0.64}
{"COMPOUND": "CCCc1cn(CCC)c(=O)n1Cc1ccc(-c2ccccc2-c2nnn[nH]2)nc1 [Example 2]", "log10 Kb": 0.87}
{"COMPOUND": "CCCCc1cn(CCC(C)C)c(=O)n1Cc1ccc(-c2ccccc2-c2nnn[nH]2)nc1 [Example 14]", "log10 Kb": 0.24}
{"COMPOUND": "CCCCc1cn(CCCC)c(=O)n1Cc1ccc(-c2ccccc2-c2nnn[nH]2)nc1 [Example 1]", "log10 Kb": 0.18}

Req: So what log10 Kb did CCCCc1cn(CCCC)c(=O)n1Cc1ccc(-c2cccnc2-c2nnn[nH]2)cc1 [Example 43] get with rabbit aortic rings?
Resp: 1.45

Req: Quick check: log10 Kb on rabbit aortic rings, item CCCCn1cc(CCC2CC2)n(Cc2ccc(-c3ccccc3-c3nnn[nH]3)nc2)c1=O [Example 9] ?
Resp: -0.27

Req: Observed log10 Kb on rabbit aortic rings for CCCCc1cn(C)c(=O)n1Cc1ccc(-c2ccccc2-c2nnn[nH]2)nc1 [Example 10] , please.
Resp: 1.36

Req: Find log10 Kb (rabbit aortic rings) for the entry CCCCc1cn(CC(C)(C)C)c(=O)n1Cc1ccc(-c2ccccc2-c2nnn[nH]2)nc1 [Example 18]
Resp: 0.21

Req: Under rabbit aortic rings: log10 Kb value of CCCCc1cn(CCc2cccs2)c(=O)n1Cc1ccc(-c2ccccc2-c2nnn[nH]2)nc1 [Example 25] ?
Resp: -0.41

Req: Hi! What's the reported log10 Kb for CCCCn1cc(CC(C)C)n(Cc2ccc(-c3ccccc3-c3nnn[nH]3)nc2)c1=O [Example 4] on rabbit aortic rings?
Resp: 1.28

Req: API: value(readout= log10 Kb, system= rabbit aortic rings, query= CCCCc1cn(C(C)(C)C)c(=O)n1Cc1ccc(-c2ccccc2-c2nnn[nH]2)nc1 [Example 17] )
Resp: 0.22

Req: Please provide the recorded log10 Kb for CCCCc1cn(CCC(C)(C)C)c(=O)n1Cc1ccc(-c2ccccc2-c2nnn[nH]2)nc1 [Example 19] , tested on rabbit aortic rings.
Resp: 0.57

Req: Form entry - test system: rabbit aortic rings; read-out: log10 Kb; compound: CCCCc1cn(CCC2=CCCC2)c(=O)n1Cc1ccc(-c2ccccc2-c2nnn[nH]2)nc1 [Example 28]
Resp: 0.15

Req: Item CCCCc1cn(CC(CC)CC)c(=O)n1Cc1ccc(-c2ccccc2-c2nnn[nH]2)nc1 [Example 20] with rabbit aortic rings - log10 Kb?
Resp: -0.17

Req: Query for rabbit aortic rings: what log10 Kb does the record show for CCCCc1cn(CC(C)C)c(=O)n1Cc1ccc(-c2ccccc2-c2nnn[nH]2)nc1 [Example 13] ?
Resp: 0.97

Req: Query log10 Kb on rabbit aortic rings for CCCCCn1cc(CCCC)n(Cc2ccc(-c3ccccc3-c3nnn[nH]3)nc2)c1=O [Example 15]
Resp: 0.21

###

Target: smooth muscle angiotensin II receptor
Assay: Assay A: Angiotensin II Binding Activity (125I-angiotensin II displacement, rat uterine membrane preparation)
Details: 50% displacement of specifically bound 125I-AII, rat uterine membranes, 25° C., 60 min
Description: Assay A: Angiotensin II Binding Activity Compounds of the invention were tested for ability to bind to the smooth muscle angiotensin II receptor using a rat uterine membrane preparation. […] Filters were assayed for radioactivity in a Micromedic gamma counter. […] Specific binding was calculated as total binding minus nonspecific binding. […] Binding data were analyzed by a nonlinear least-squares curve fitting program.
EXPERIMENTAL READOUT: pIC50
Hey, just a heads up that pIC50 is the negative log base 10 of the concentration in molar.

Past entries and their recorded results:
{"COMPOUND": "CCCCc1cn(-c2ccccc2OC)c(=O)n1Cc1ccc(-c2ccccc2-c2nnn[nH]2)nc1", "REPORTED VALUE": 8.05}
{"COMPOUND": "CCCCc1cn(C2C3CC4CC(C3)CC2C4)c(=O)n1Cc1ccc(-c2ccccc2-c2nnn[nH]2)nc1 (centres unmarked)", "REPORTED VALUE": 7.29}
{"COMPOUND": "CCCCCc1cn(CCCC)c(=O)n1Cc1ccc(-c2ccccc2-c2nnn[nH]2)nc1", "REPORTED VALUE": 8.00}
{"COMPOUND": "CCCCc1cn(CCC2CC2)c(=O)n1Cc1ccc(-c2ccccc2-c2nnn[nH]2)nc1", "REPORTED VALUE": 8.27}

Here's the next entry for you.
Req: GET /values?readout=pIC50&system=smooth muscle angiotensin II receptor&item= "CCCCc1cn(CCCC)c(=O)n1Cc1ccc(-c2ncccc2-c2nnn[nH]2)cc1"
Resp: 7.04

###

EXPERIMENTAL READOUT: melting point

Check out these entries, answers already filled in.
{"COMPOUND SMILES": "CCCCc1cn(CCCC)c(=O)n1Cc1ccc(-c2ccccc2-c2nnn[nH]2)nc1", "melting point": "170 to 171 °C"}
{"COMPOUND SMILES": "CCCCc1cn(CC(C)C)c(=O)n1Cc1ccc(-c2ccccc2-c2nnn[nH]2)nc1", "melting point": "160 to 161.5 °C"}
{"COMPOUND SMILES": "CCCCc1cn(CC(C)(C)C)c(=O)n1Cc1ccc(-c2ccccc2-c2nnn[nH]2)nc1", "melting point": "194.5 to 195 °C"}
{"COMPOUND SMILES": "CCCCc1cn(C)c(=O)n1Cc1ccc(-c2ccccc2-c2nnn[nH]2)nc1", "melting point": "184 to 185 °C (dec.)"}

Req: I have this compound here, "CCCCCc1cn(CCCC)c(=O)n1Cc1ccc(-c2ccccc2-c2nnn[nH]2)nc1" , and I need its recorded melting point.
Resp: 176 to 177 °C

Req: What does the data say about its melting point? Entry: "CCCCc1cn(CC)c(=O)n1Cc1ccc(-c2ccccc2-c2nnn[nH]2)nc1"
Resp: 205 °C (dec.)

Req: Any idea what melting point was measured for "CCCCc1cn(CCC)c(=O)n1Cc1ccc(-c2ccccc2-c2nnn[nH]2)nc1" ?
Resp: 164 to 165 °C

Req: I have this compound here, "CCCCCn1cc(CCCC)n(Cc2ccc(-c3ccccc3-c3nnn[nH]3)nc2)c1=O" , and I need its recorded melting point.
Resp: 162 to 164 °C

###

EXPERIMENTAL READOUT: melting point

{"COMPOUND SMILES": "CCCCc1cn(CCCC)c(=O)n1Cc1ccc(-c2ccncc2-c2nnn[nH]2)cc1", "REPORTED VALUE": "176 to 178 °C (dec.)"}

Req: Could you tell me which melting point is on file for "CCCCc1cn(-c2c(Cl)cccc2Cl)c(=O)n1Cc1ccc(-c2ccccc2-c2nnn[nH]2)nc1" ?
Resp: 212 to 212.5 °C

Req: Give the measured melting point of "CCCCc1cn(CCC2CC2)c(=O)n1Cc1ccc(-c2ccccc2-c2nnn[nH]2)nc1" .
Resp: 182 to 183 °C

Req: Any idea what its melting point is? The molecule is "CCCCc1cn(CCCC)c(=O)n1Cc1ccc(-c2cnccc2-c2nnn[nH]2)cc1"
Resp: 128 to 130 °C

Req: Please look up its melting point: "CCCCn1cc(C2CCCC2)n(Cc2ccc(-c3ccccc3-c3nnn[nH]3)nc2)c1=O"
Resp: 195 to 196 °C (dec.)
